# assay-remarks: viability of HCT116 lacking mutant beta-catenin – cell-based, DP diverse set, validation, pilot screen (AID 1004)
# protocol-conditions: HCT116 (mutant beta-catenin deleted) viability, CellTiter-Glo, 60 h; at 10 µM; active compounds read low
readout: viability (%)
Response body: numeric value in %, unit text excluded.

Examples from the recorded data:
compound	viability (%)
CCCN1CCC[C@@H]2Cc3cn[nH]c3C[C@H]21	103
N#CC(C#N)=Cc1ccc([N+](=O)[O-])c(O)c1	97.9
O=C1C=C2C=C[C@@H]3C[C@@]2(O1)[C@H]1CCCCN31	86
Nc1ccncc1	103
CSC(=S)NCc1c[nH]c2ccccc12	95

Inquiry: Tell me the measured viability of C[C@@H]1CC[C@H]2[C@@H](C)C(=O)O[C@@H]3OC4(C)CC[C@@H]1[C@]32OO4 , please.
Reply text: 100

Inquiry: Tell me the measured viability of CNc1ccc2oc(C[C@@H]3OC4(CC[C@@H]3C)O[C@H](C(C)C(=O)c3ccc[nH]3)[C@H](C)C[C@H]4C)nc2c1C(=O)O (some centres not stated) , please.
Reply text: 9.98

Inquiry: Tell me the measured viability of COC1=C[C@@H]2[C@@H]3Cc4ccc(OC)c(O)c4[C@]2(CCN3C)CC1=O , please.
Reply text: 96.9

Inquiry: Tell me the measured viability of CCN1C[C@@]2(COC)C3[C@@H](OC)[C@H]4C1[C@@]3(C1C[C@]3(O)C(OC)[C@H](O)[C@@]4(OC(C)=O)C1[C@H]3OC(=O)c1ccccc1)[C@H](OC)C[C@H]2O (some centres not stated) , please.
Reply text: 99.8

Inquiry: Tell me the measured viability of C=CCN1CC[C@]23c4c5ccc(O)c4O[C@H]2C(=O)CC[C@@]3(O)[C@H]1C5 , please.
Reply text: 96.6

Inquiry: Tell me the measured viability of C[C@H]1CCC/C=C/C2C[C@H](O)C[C@H]2[C@H](O)/C=C/C(=O)O1 (some centres not stated) , please.
Reply text: 40.4

Inquiry: Tell me the measured viability of COC(=O)C(O)C(O)(CCC(C)C)C(=O)OC1C(OC)=CC23CCCN2CCc2cc4c(cc2C13)OCO4 (configuration not stated) , please.
Reply text: 30
